tested on: HIV-1 LTR-III G-quadruplex (FAM/TAMRA-labeled LTR-III); assay: FRET melting assay, LTR-III G4; type: binding; conditions: Table S1 primary screening, ligand:ODN 50:1, singlicate
Outcome Measure: LTR-III ΔTm (°C)
Just the number in °C, nothing appended.

CC1=N/C(=C\c2ccccc2O[Si](c2ccccc2)(c2ccccc2)C(C)(C)C)C(=O)N1C    -0.3
CCCCN(CCCC)c1cccc(C=C2N=C(C)N(C)C2=O)c1    -0.4
COc1cc(/C=C2N=C(/C=C/c3cc(Br)c(O)c(Br)c3)N(C)C\2=O)cc(OC)c1O    7.8

stdin: Fill blank: measured LTR-III ΔTm of the compound CC1=NC(=Cc2ccc3c(c2)CCN3)C(=O)N1C is ____.
stdout: 0.3

stdin: Fill blank: measured LTR-III ΔTm of the compound CCN(CC)c1ccc(C=C2N=C(C=Cc3cc(Br)c(O)c(Br)c3)N(C)C2=O)cc1 [M 2368d] is ____.
stdout: 0.1

###

assay: Cytotoxicity test; assay type: cell-based; settings: human; Figure 7; MT4 cells
Outcome Measure: CC50 at 9 days

stdin: Fill blank: measured CC50 at 9 days of the compound COc1cc(/C=C2N=C(/C=C/c3cc(Br)c(O)c(Br)c3)N(CCN)C\2=O)cc(OC)c1O.Cl is ____.
stdout: > 25 µM

###

Below, each entry is listed alongside its reported LTR-III ΔTm.
tested on: HIV-1 LTR-III G-quadruplex (FAM/TAMRA-labeled LTR-III); test: FRET melting assay, LTR-III G4; type: binding; conditions: Table S1 primary screening, ligand:ODN 50:1, singlicate
Just the number in °C, nothing appended.

CC=CC=CC1=NC(=Cc2ccc(O)cc2)C(=O)N1C [ccA 8]    0.2
CCN(CC)C(=S)Oc1ccc(C=C2N=C(C)N(C)C2=O)cc1 [M 2081]    0.1
CC1=NC(=Cc2ccc[nH]2)C(=O)N1C [N 815]    -0.1
O=C1NC(=S)SC1=Cc1cc(F)c(O)c(F)c1 [SAI 118]    0
CC1=NC(=Cc2ccc(Br)cc2)C(=O)N1C [SV 51.10]    -0.2

As a next step, examine the compound that follows.
stdin: Fill blank: measured LTR-III ΔTm of the compound COc1ccc(-c2c(C(=O)OC(C)C)noc2C(=O)N2CCCCC2)cc1 [SA 375] is ____.
stdout: -0.4

###

System: MT4 cells
Assay: Cytotoxicity test
Format: cell-based
Details: Table S12, nine days
Method: Green monkey kidney (Vero, Beach, FL, USA) cell line was maintained in 2 × Eagle MEM (“Chumakov FSC R&D IBP RAS”, Russia) with 5% FBS with L-glutamine, penicillin and streptomycin. […] HIV-1 strain NL4-3 was obtained via cell transfection with pNL4-3 3 (ARP2006, NIBSC, Potters Bar, UK). MT4 cell suspensions were added to the wells with compound dilutions and DMSO control (approx. 2 × 10^4 cells per well). […] Mean and SD were calculated with OriginPro 8 (OriginLab, St. Louis, MO, USA).
Outcome Measure: СС50 (MT4) (µM)
Just the number in µM, nothing appended.

Examples with answers:
COc1ccc(OC)c(/C=C2N=C(/C=C/c3ccncc3)N(C)C\2=O)c1 [N 848.2]    6.4
COc1c(O)ccc(/C=C2N=C(/C=C/c3ccncc3)N(C)C\2=O)c1OC [N 1068.2]    3.0
Cc1cn([C@H]2C[C@H](N=[N+]=[N-])[C@@H](CO)O2)c(=O)[nH]c1=O [AZT, reference compound]    8.0
COc1cc(O)ccc1/C=C1N=C(/C=C/c2ccnc3ccccc23)N(C)C\1=O [ZS 331]    1.17
COc1c(O)ccc(/C=C2N=C(/C=C/c3cc(Cl)nc(Cl)c3)N(C)C\2=O)c1OC [N1198]    2.8

stdin: Fill blank: measured СС50 (MT4) of the compound COc1c(O)ccc(/C=C2N=C(/C=C/c3cc(Br)c(O)c(Br)c3)N(C)C\2=O)c1OC [N1199] is ____.
stdout: 4.6

stdin: Fill blank: measured СС50 (MT4) of the compound COc1cc(/C=C2N=C(/C=C/c3cc(Br)c(O)c(Br)c3)N(C)C\2=O)cc(OC)c1O [ZS 260.1] is ____.
stdout: 4.1

stdin: Fill blank: measured СС50 (MT4) of the compound COc1c(O)ccc(C=C2N=C(C=Cc3ccncc3)N(C)C2=O)c1O [N 1069] is ____.
stdout: 6.0

stdin: Fill blank: measured СС50 (MT4) of the compound O=C1/C(=C/c2cccs2)N=C(/C=C/c2ccc(O)cc2)N1CCc1ccc(O)cc1 [MID 161] is ____.
stdout: 17.3

stdin: Fill blank: measured СС50 (MT4) of the compound COc1cc(/C=C2N=C(/C=C/c3cc(OC)c(O)c(OC)c3)N(C)C\2=O)cc(OC)c1O [N1193] is ____.
stdout: 2.3

Values from paper PMC8533149
